# TARGET_OR_SYSTEM: CDK2/cyclinA (Homo sapiens, UniProt P24941)
# Construct: purchased Invitrogen PV3267
# ASSAY_NAME: Z'-LYTE kinase assay CDK2/cyclinA
# Format: biochemical
# CONDITION_NOTES: read-out: Kinase inhibition, IC50 CDK2A
ENDPOINT_LABEL: IC50 (nM)

A. CCn1cc(-c2ccnc(Nc3cccc(S(N)(=O)=O)c3)n2)c2ccnc(Cl)c21
B. CCCn1cc(-c2ccnc(Nc3cccc(O)c3)n2)c2cccnc21
C. CCCn1cc(-c2ccnc(Nc3ccc(C)c(S(=O)(=O)N4CCOCC4)c3)n2)c2ccncc21
D. CCCn1cc(-c2ccnc(Nc3ccc(C)c(S(=O)(=O)N4CCOCC4)c3)n2)c2cccnc21
(Q) Rank descending by IC50. // rank by listing labels in the order requested
(A) D, C, B, A
(D: 4580 nM, C: 30 nM, B: 6 nM, A: 3.8 nM)
